Target: human OT7T175 (metastin receptor) (human, UniProt Q969F8 1-398)
Sequence (Q969F8 whole entry L364H): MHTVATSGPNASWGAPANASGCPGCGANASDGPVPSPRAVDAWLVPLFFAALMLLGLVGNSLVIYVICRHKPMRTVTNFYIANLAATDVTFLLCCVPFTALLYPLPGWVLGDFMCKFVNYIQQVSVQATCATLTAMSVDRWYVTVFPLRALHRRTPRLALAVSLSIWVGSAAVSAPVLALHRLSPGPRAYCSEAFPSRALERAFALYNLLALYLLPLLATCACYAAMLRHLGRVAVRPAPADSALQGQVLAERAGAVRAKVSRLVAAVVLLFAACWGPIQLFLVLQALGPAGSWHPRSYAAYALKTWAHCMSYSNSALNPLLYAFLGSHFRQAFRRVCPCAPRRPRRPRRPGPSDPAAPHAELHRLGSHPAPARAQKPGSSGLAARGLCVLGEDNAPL
Assay: cell-based or functional assay
Square brackets hold non-standard residues; d marks the D form. Ends that are not written are not given here. * marks the point of attachment. Propanoyl(3-(3-pyridyl)) = O=C(CCc1cccnc1)*; Phe(4-F) = N[C@@H](Cc1ccc(F)cc1)C(=O)O; Arg(Me) = CNC(=N)NCCC[C@H](N)C(=O)O; 4Pal = N[C@@H](Cc1ccncc1)C(=O)O; d4Pal = N[C@H](Cc1ccncc1)C(=O)O; Orn = NCCC[C@H](N)C(=O)O; azaGly = NNC(=O)O
quantity_name: intracellular Ca ion level-increasing activity (FLIPR)

Please look at this binder and report its intracellular Ca ion level-increasing activity (FLIPR): [dY][dN][4Pal]NSF[azaGly]L[Arg(Me)][Phe(4-F)]-NH2 (N-terminus assumed; SMILES CNC(=N)NCCC[C@H](NC(=O)[C@H](CC(C)C)NC(=O)NNC(=O)[C@H](Cc1ccccc1)NC(=O)[C@H](CO)NC(=O)[C@H](CC(N)=O)NC(=O)[C@H](Cc1ccncc1)NC(=O)[C@@H](CC(N)=O)NC(=O)[C@H](N)Cc1ccc(O)cc1)C(=O)N[C@@H](Cc1ccc(F)cc1)C(N)=O) [Compound No. 317: [D-Tyr1,D-Asn2,Pya(4) 3,AzaGly7,Arg(Me)9,Phe(4F)10]MS10]
1 specific activity to metastin (1-54)

Indicate the recorded intracellular Ca ion level-increasing activity (FLIPR) value for this binder: [dY]NWNSFGL[Arg(Me)]F-NH2 (also: Phe6-Gly7 bond replaced by NHCO (retro-inverso)) [Compound No. 319: [6Ψ7,NHCO,D-Tyr1,Arg(Me)9]MS10]
3 specific activity to metastin (1-54)

Write down intracellular Ca ion level-increasing activity (FLIPR) measured for item YNWNSFGL[Orn]F-NH2 (N-terminus assumed; SMILES CC(C)C[C@H](NC(=O)CNC(=O)[C@H](Cc1ccccc1)NC(=O)[C@H](CO)NC(=O)[C@H](CC(N)=O)NC(=O)[C@H](Cc1c[nH]c2ccccc12)NC(=O)[C@H](CC(N)=O)NC(=O)[C@@H](N)Cc1ccc(O)cc1)C(=O)N[C@@H](CCCN)C(=O)N[C@@H](Cc1ccccc1)C(N)=O) [Compound No. 314: [Orn9]MS10]
1 specific activity to metastin (1-54)

Identify measured intracellular Ca ion level-increasing activity (FLIPR) corresponding to [dY][d4Pal]NSF[azaGly]L[Arg(Me)]F-NH2 (N-terminus assumed; SMILES CNC(=N)NCCC[C@H](NC(=O)[C@H](CC(C)C)NC(=O)NNC(=O)[C@H](Cc1ccccc1)NC(=O)[C@H](CO)NC(=O)[C@H](CC(N)=O)NC(=O)[C@@H](Cc1ccncc1)NC(=O)[C@H](N)Cc1ccc(O)cc1)C(=O)N[C@@H](Cc1ccccc1)C(N)=O, also called KiSS305; KiSS1-305) [Compound No. 305: des(1)-[D-Tyr2,D-Pya(4) 3,AzaGly7,Arg(Me)9]MS10]
5 specific activity to metastin (1-54)

Find the measured intracellular Ca ion level-increasing activity (FLIPR) of {Propanoyl(3-(3-pyridyl))}-NSF[azaGly]L[Arg(Me)]F-NH2 (SMILES CNC(=N)NCCC[C@H](NC(=O)[C@H](CC(C)C)NC(=O)NNC(=O)[C@H](Cc1ccccc1)NC(=O)[C@H](CO)NC(=O)[C@H](CC(N)=O)NC(=O)CCc1cccnc1)C(=O)N[C@@H](Cc1ccccc1)C(N)=O, also called KiSS322; KiSS1-322) [Compound No. 322: des(1-3)-3-Pyridylpropionyl-[AzaGly7,Arg(Me)9]MS10] and report it.
1 specific activity to metastin (1-54)

Provide only the value of recorded intracellular Ca ion level-increasing activity (FLIPR) for [dY][dN]TNSF[azaGly]L[Arg(Me)][Phe(4-F)]-NH2 [Compound No. 316: [D-Tyr1,D-Asn2,Thr3,AzaGly7,Arg(Me)9,Phe(4F)10]MS10]
1 specific activity to metastin (1-54)

From here, focus on the item given below.
Please supply the value of reported intracellular Ca ion level-increasing activity (FLIPR) for the item [dY][dN]WNTF[azaGly]L[Arg(Me)]F-NH2 [Compound No. 298: [D-Tyr1,D-Asn2,Thr5,AzaGly7,Arg(Me)9]MS10]
5 specific activity to metastin (1-54)
